Assembled from different publications: IC50 for Caspase-1 (Homo sapiens).

Here is how some compounds turned out for IC50.
compound: Cc1[nH]c2ccccc2c1CCNC(=O)C[C@H](C(=O)N[C@H](C=O)CC(=O)O)C(C)C
target: Caspase-1 (Homo sapiens)
IC50: 18 nM

compound: O=C(CN1CCS(=O)(=O)C[C@H](NC(=O)c2nccc3ccccc23)C1=O)N[C@H]1CC(=O)OC1O (some centres not stated)
target: Caspase-1 (Homo sapiens)
IC50: 130 nM

compound: CCC(CC)c1ccc(Oc2ccccc2S(=O)(=O)N[C@H](C=O)C(=O)O)cc1
target: Caspase-1 (Homo sapiens)
IC50: 3500 nM

compound: O=C(CN1CC=CC[C@H](NC(=O)c2nccc3ccccc23)C1=O)N[C@H]1CC(=O)OC1O (some centres not stated)
target: Caspase-1 (Homo sapiens)
IC50: 27 nM

compound: CC(C)[C@H](CC(=O)N(CCOc1ccccc1)CCC(=O)O)C(=O)N[C@H](C=O)CC(=O)O
target: Caspase-1 (Homo sapiens)
IC50: 114 nM

compound: CS(=O)(=O)N1C[C@@H]2CCCC[C@H](NC(=O)c3ccccc3)C(=O)N2[C@H](C(=O)N[C@H]2CC(=O)OC2O)C1 (some centres not stated)
target: Caspase-1 (Homo sapiens)
IC50: 6 nM

# value of IC50, Caspase-1 (Homo sapiens), item "N#Cc1ccc(-c2cc(C(N)=O)c(Cl)nn2)cc1" = 1500 nM

# value of IC50, Caspase-1 (Homo sapiens), item "COC(=O)C[C@H]1CCC[C@H]2CC(=O)N(OCC(=O)[C@H](CC(=O)O)NC(=O)[C@H](C)NC(=O)[C@@H](NC(=O)OCc3ccccc3)C(C)C)[C@@H]12" = 26 nM

# value of IC50, Caspase-1 (Homo sapiens), item CC(C)[C@H](NC(=O)OCc1ccccc1)C(=O)NC(CC(=O)O)C(=O)CF (some centres not stated) = 20 nM

# value of IC50, Caspase-1 (Homo sapiens), item COc1cc2c(cc1OC)CN(C(=O)CCCn1nnnc1C(CC(C)(C)C)NCC(O)CC(=O)O)CC2 (configuration not stated) = 14600 nM

# value of IC50, Caspase-1 (Homo sapiens), item COc1cccc(C(=O)N[C@H]2CC=CCN(CC(=O)N[C@H]3CC(=O)OC3O)C2=O)c1 (some centres not stated) = 53 nM

# value of IC50, Caspase-1 (Homo sapiens), item O=C1C[C@H](NC(=O)C2(C(=O)NNC(=O)c3ccc4ccccc4c3)CC2)C(O)O1 (some centres not stated) = 2900 nM

# value of IC50, Caspase-1 (Homo sapiens), item "CC(C)[C@H](CC(=O)NCCc1c[nH]c2ccccc12)C(=O)N[C@H](C=O)CC(=O)O" = 23.1 nM

# value of IC50, Caspase-1 (Homo sapiens), item "NC(=O)c1cc(-c2ccc([N+](=O)[O-])cc2)nnc1Cl" = 700 nM

# value of IC50, Caspase-1 (Homo sapiens), item O=C(CN1CC=CC[C@H](NC(=O)c2ccccc2)C1=O)N[C@H]1CC(=O)OC1O (some centres not stated) = 168 nM

# value of IC50, Caspase-1 (Homo sapiens), item O=C(CN1CCS(=O)(=O)C[C@H](NC(=O)c2ccc3ccccc3c2)C1=O)N[C@H]1CC(=O)OC1O (some centres not stated) = 150 nM

# value of IC50, Caspase-1 (Homo sapiens), item O=C(CN1CCCN(C(=O)N2CCOCC2)C[C@H](NC(=O)c2ccc3ccccc3c2)C1=O)N[C@H]1CC(=O)OC1O (some centres not stated) = 44 nM
